Source listed as ChEMBL document CHEMBL1140539.

Target: Histone deacetylase (Homo sapiens) (UniProt Q13547+O15379+Q9UBN7+Q92769+Q9UQL6+Q8WUI4+Q9BY41+Q96DB2+P56524+Q9UKV0+Q969S8)
Conditions: HeLa
Description: Inhibition of HDAC in HeLa cell lysates
ATTRIBUTE_MEASURED: IC50

> print(dat)
                             smiles.text  attribute.measured   result
1  O=C(CCC1=CCCN(Cc2ccc3ccccc3c2)C1=O)NO                IC50  > 10 µM

====

Tested on: ACHN
Test: Growth inhibition of human ACHN cells by SRB assay
Type: functional
Entries and their measured log10(GI50) follow.
ATTRIBUTE_MEASURED: log10(GI50) (log10 of the value in nM)

> print(dat)
                                smiles.text  numeric.readout
1   O=C(CCC1=CCCN(CCCc2ccc3ccccc3c2)C1=O)NO             2.66
2       O=C(CCC1=CCCN(Cc2ccc(Br)cc2)C1=O)NO             3.39
3    O=C(CCC1=CCCN(CCc2ccc3ccccc3c2)C1=O)NO             3.07
4  O=C(CCC1=CCCN(Cc2ccc([N+](=O)[O-])cc2)C1=O)NO             3.72
5  O=C(CCC1=CCCN(CCCCc2cccc3ccccc23)C1=O)NO             3.26
